I'd be grateful if you could share measured Activity for these entries.
tested on: Rattus norvegicus; assay: Cardiotoxicity in anesthetized Sprague-Dawley rat assessed as decrease in mean blood pressure at 3 mg/kg, iv measured for 30 mins relative to control; assay type: toxicity, organism-based; parameters: scale not given: the % may be the effect or the level left; conditions: in vivo, 0.5 h
One number for each entry, in %.

• CC(C)c1n[nH]c2cc(OCCNC[C@H](O)c3cccc(NS(C)(=O)=O)c3)ccc12 = 7.6

Give Activity for each of the items listed below.
1. Cc1n[nH]c2cc(OCCNC[C@H](O)c3cccc(NS(C)(=O)=O)c3)ccc12
2. Nc1nc(CC(=O)Nc2ccc(CCNC[C@H](O)c3ccccc3)cc2)cs1 [MIRABEGRON]

1. 8.5
2. 38.3

# return Activity for each item in the list
1. CCc1n[nH]c2cc(OCCNC[C@H](O)c3cccc(NS(C)(=O)=O)c3)ccc12
2. CS(=O)(=O)Nc1cccc([C@@H](O)CNCCOc2ccc3c(C4CC4)n[nH]c3c2)c1

[10.8, 11]
